Target: T1, Antibody No. 465.1
T1 construct: also called Ab No. 465.1
Assay: peptide blocking ELISA on plate-bound VISTA, peptide 20 ug/mL
Label rule, in plain words: percent reduction in ELISA signal of 3% and up is y, under 3% is n.

These recorded examples may help you get a feel for the data.
binder	category
LAQRHGLESASDHHG (synthetic overlapping peptide from human VISTA) [Spiked Peptide 17 (LAQRHGLESASDHHG)]	y
FKVATPYSLYVCPEG (synthetic overlapping peptide from human VISTA) [Spiked Peptide 1 (FKVATPYSLYVCPEG)]	y
HLHHGGHQAANTSHD (synthetic overlapping peptide from human VISTA) [Spiked Peptide 14 (HLHHGGHQAANTSHD)]	y
TFQDLHLHHGGHQAA (synthetic overlapping peptide from human VISTA) [Spiked Peptide 13 (TFQDLHLHHGGHQAA)]	y
PYSLYVCPEGQNVTL (synthetic overlapping peptide from human VISTA) [Spiked Peptide 2 (PYSLYVCPEGQNVTL)]	n
LLDSGLYCCLVVEIR (synthetic overlapping peptide from human VISTA) [Spiked Peptide 22 (LLDSGLYCCLVVEIR)]	y
VQTGKDAPSNCVVYP (synthetic overlapping peptide from human VISTA) [Spiked Peptide 28 (VQTGKDAPSNCVVYP)]	n

Now examine the next entry.
Enquiry: Is the recorded value of percent reduction in ELISA signal equal to or greater than 3% for this binder? NTSHDLAQRHGLESA (synthetic overlapping peptide from human VISTA) [Spiked Peptide 16 (NTSHDLAQRHGLESA)]
Return: n

Origin of measurements: patent US20240132593A1
